Test system: human Pan T cells
Test: Human Pan T cell IL-2 ELISA
Type: cell-based
Settings: Homo sapiens, T-cell, 48 h, Anti-CD3 and Anti-CD28, supernatant IL-2 ELISA, read-out: IL-2 release, EC50
observable: pEC50
When answering, recall that pEC50 equals minus log10 of the concentration in mol/L, and write that number alone.

- compound: "CN(C)C(=O)c1ccc2c(c1)C(C)(C)c1cc(-c3cnc4nc(C(F)F)ccn34)c3c(c1N2)C(=O)NC3 [Example 257]"
  endpoint value: 6.81

I am curious: what pEC50 value has been reported for CCC1(C)c2cc(N3CCOCC3)ccc2Nc2c1cc(-c1cnc3c(OC)nccn13)c1c2C(=O)NC1 (single isomer, unassigned) [Example 212] ?
7.96

Follow-up entry: Cc1ccnn2c(-c3cc4c(c5c3CNC5=O)Nc3ccc(N5CCOCC5)cc3C4(C)C)cnc12 [Example 54]
8.19

Follow-up entry: CC1(C)c2cc(N3CCOCC3)ccc2Nc2c1cc(-c1cnc3nc(N4CC(F)C4)ccn13)c1c2C(=O)NC1 [Example 247]
8.04

----------
// values below are reported pEC50
Tested on: human Pan T cells
Experiment: Human Pan T cell IL-2 ELISA
Format: cell-based
Settings: Homo sapiens, T-cell, 48 h, Anti-CD3 and Anti-CD28, supernatant IL-2 ELISA, read-out: IL-2 release, EC50
When answering, recall that pEC50 equals minus log10 of the concentration in mol/L, and write that number alone.

These solved cases illustrate the format of a correct answer.
- compound: "CCc1ncc(-c2cc3c(c4c2CNC4=O)Nc2ccc(N4CCOC(C(C)(C)O)C4)cc2C3(C)C)n1C (single isomer, unassigned) [Example 134]"
  endpoint value: 7.71
- compound: "Cn1c(-c2cc3c(c4c2CNC4=O)Nc2ccc(N4CCOC(C(C)(C)O)C4)cc2C3(C)C)cnc1OC1CCOC1 (single isomer, unassigned) [Example 153]"
  endpoint value: 7.33

I am curious: what pEC50 value has been reported for CC1(C)c2cc(-c3cnn4cccnc34)c3c(c2Nc2ccc(N4CCOCC4)nc21)C(=O)NC3 [Example 29] ?
7.55

Follow-up entry: COC1CCCn2c(-c3cc4c(c5c3CNC5=O)Nc3ccc(N5CC(C)OC(C)C5)cc3C4(C)C)cnc21 (single isomer, unassigned) [Example 140]
7.45

Follow-up entry: CN1CCn2c(-c3cc4c(c5c3CNC5=O)Nc3ccc(N5CCOCC5)cc3C4(C)C)cnc2C1=O [Example 84]
7.18

----------
System: human Pan T cells
Test: Human Pan T cell IL-2 ELISA
Assay type: cell-based
Conditions: Homo sapiens, T-cell, 48 h, Anti-CD3 and Anti-CD28, supernatant IL-2 ELISA, read-out: IL-2 release, EC50
Procedure: A compound was dissolved in DMSO to 10 mM, and then diluted three-fold with DMSO to 9 dosages in a 96-well plate. […] The assay was conducted in a 96-well plate. […] On the second day of the assay, human Pan T cells were recovered, centrifuged and counted. […] The signal value of light absorption was converted into a multiple. […] The average value of control wells refers to the value measured in wells with DMSO added. EC50 values were calculated by XLFit (version 5.3.1.3) in Excel. […]
// values below are reported pEC50
When answering, recall that pEC50 equals minus log10 of the concentration in mol/L, and write that number alone.

I am curious: what pEC50 value has been reported for COC1CCCn2c(-c3cc4c(c5c3CNC5=O)Nc3cc(C#N)c(N5CCOCC5)cc3C4(C)C)cnc21 (single isomer, unassigned) [Example 175] ?
7.85
